Please provide measured pIC50 for the entries that follow.
Molecular target: full length active recombinant SYK enzyme (Homo sapiens, UniProt P43405)
Construct: full length active recombinant SYK enzyme (Millipore, Calif.)
Test: Inhibition of Syk tyrosine phosphorylation activity (LANCE TR-FRET kinase assay)
Details: 1 nM SYK, 550 nM substrate, 100 μM ATP, 1 hour room temperature
pIC50: −log10 of the molar value.

Query: Consider the compound Cc1cccc(Nc2nc(NC3(CN)CC3)ncc2C(N)=O)c1 and give its measured pIC50.
Result: 7.00 to 8.00

Query: Reported pIC50, compound NC(=O)c1cnc(N[C@H]2CCCNC2)nc1Nc1cnc2ccccc2c1 : ____
Result: 6.00 to 7.00

Query: Endpoint output: pIC50 of NC(=O)c1cnc(N[C@@H]2CCNC2)nc1Nc1cccc(-n2nccn2)c1 . Value?
Result: 8.00 to 9.00

Query: Need pIC50, item CCCc1cc2c(Nc3nc(N[C@@H]4CCCC[C@@H]4N)ncc3C(N)=O)cccc2n1C
Result: 7.00 to 8.00

Query: Could you share which pIC50 value was measured for CCn1ccc2c(Nc3nc(NC4CC4)ncc3C(N)=O)cccc21 ?
Result: 6.00 to 7.00

Query: Which measured pIC50 value corresponds to NC(=O)c1cnc(N[C@@H]2CCCC(F)(F)[C@@H]2N)nc1Nc1ccc2ncccc2c1 ?
Result: 7.00 to 8.00

Query: Can you share its pIC50? I mean this compound: CC[C@@H](Nc1ncc(C(N)=O)c(Nc2cccc(C)c2)n1)C1(N)CC1
Result: > 9.00

Query: Fill in the blank: the reported pIC50 of CC(C)C[C@@H](Nc1ncc(C(N)=O)c(Nc2cccc(-n3cccn3)c2)n1)C1(N)CC1 is ____.
Result: 8.00 to 9.00

Query: What value of pIC50 has been recorded for this entry: NC(=O)c1cnc(N[C@H](C2CC2)C2(N)CC2)nc1Nc1cccc(F)c1
Result: 8.00 to 9.00

----------
Exercise: for every item that follows, state its recorded pIC50.
Target: full length active recombinant SYK enzyme (Homo sapiens, UniProt P43405)
Construct: full length active recombinant SYK enzyme (Millipore, Calif.)
Assay: Inhibition of Syk tyrosine phosphorylation activity (LANCE TR-FRET kinase assay)
Details: 1 nM SYK, 550 nM substrate, 100 μM ATP, 1 hour room temperature
pIC50: −log10 of the molar value.

Query: Given the entry N#Cc1cccc(Nc2nc(NC[C@@H](N)CC(F)F)ncc2C(N)=O)c1 , report its measured pIC50.
Result: 6.00 to 7.00

Query: Which pIC50 value is on record for CCO[C@H]1CCCC[C@H]1Nc1ncc(C(N)=O)c(Nc2cccc(-n3nccn3)c2)n1 ?
Result: 6.00 to 7.00

Query: For CCc1c(C)c2c(Nc3nc(N[C@@H]4CCCC[C@@H]4N)ncc3C(N)=O)cccc2n1C , what is its reported pIC50?
Result: 6.00 to 7.00

Query: Looking for the measured pIC50 of CCC(Nc1ncc(C(N)=O)c(Nc2cccc(C)c2)n1)C1(N)CC1 (racemic) , can you help?
Result: 8.00 to 9.00

----------
Biological target: full length active recombinant SYK enzyme (Homo sapiens, UniProt P43405)
Construct: full length active recombinant SYK enzyme (Millipore, Calif.)
Test: Inhibition of Syk tyrosine phosphorylation activity (LANCE TR-FRET kinase assay)
Conditions: 1 nM SYK, 550 nM substrate, 100 μM ATP, 1 hour room temperature
readoutKind: IC50

Query: Need IC50, item NC(=O)c1cnc(N[C@@H]2CCOC[C@@H]2N)nc1Nc1cccc(Cl)c1
Result: 10 to 100 nM

Query: State the recorded IC50 for this entry: CC(C)(C(=O)O)c1cccc(Nc2nc(N[C@@H]3CCCC[C@@H]3N)ncc2C(N)=O)c1
Result: 100 to 1000 nM

Query: Given the compound NC(=O)c1cnc(N[C@H](C2CC2)C2(N)CC2)nc1Nc1ccc2ncsc2c1 , what is its reported IC50?
Result: 1 to 10 nM

Query: # query: IC50 of entry CCn1ccc2c(Nc3nc(Nc4ccc5c(c4)CC(=O)N5)ncc3C(N)=O)cccc21
Result: 10 to 100 nM

Query: Please report the recorded IC50 for NC(=O)c1cnc(N[C@@H]2CCCC[C@@H]2N)nc1Nc1cc(-n2nccn2)c(Cl)cc1Cl .
Result: 10 to 100 nM

Query: Please report the recorded IC50 for Cc1nsc(Nc2nc(N[C@@H]3CCCC[C@@H]3N)ncc2C(N)=O)c1I .
Result: 10 to 100 nM

Query: Dear colleague, I am looking for the recorded IC50 of the following compound: CC[C@@H](Nc1nc(Nc2cc(C)ns2)ncc1C(N)=O)C(N)=O
Result: 100 to 1000 nM

Query: For CC[C@@H](Nc1ncc(C(N)=O)c(Nc2cccc(-n3cccn3)c2)n1)C1(N)CC1 , what is its reported IC50?
Result: 1 to 10 nM

Hey, just so you know, these numbers are from patent US20140323418A1.
